- Tested on: U-251
- experiment-description: Induction of apoptosis in human U251 cells assessed as early apoptotic cells at 100 uM after 48 hrs using annexin-V FITC and PI staining by flow cytometry in presence of Ac-LEHD-CHO
- Type: functional
value-type: Activity (%)

>>> df
                                   molecule  observed_result
0         CC(C)(C)C(=O)OCOC(=O)CCC(=O)CN.Cl                2
1     NCC(=O)CCC(=O)O [AMINOLEVULINIC ACID]                2
2              CCCC(=O)OCOC(=O)CCC(=O)CN.Cl                2
3  CCCC(=O)OC(C)OC(=O)CCC(=O)CN.Cl (centres undefined)                3

====

As shown below, each of these compounds has a reported Activity value.
- Tested on: U-251
- experiment-description: Induction of necrosis in human U251 cells assessed as necrotic cells at 100 uM after 48 hrs using annexin-V FITC and PI staining by flow cytometry in presence of Ac-LEHD-CHO
- Format: functional
value-type: Activity (%)

>>> print(df.to_string())
                                   compound  target_or_system  observed_result
0  CCCC(=O)OC(C)OC(=O)CCC(=O)CN.Cl (centres undefined)             U-251                8
1         CC(C)(C)C(=O)OCOC(=O)CCC(=O)CN.Cl             U-251               17
2              CCCC(=O)OCOC(=O)CCC(=O)CN.Cl             U-251               15
3     NCC(=O)CCC(=O)O [AMINOLEVULINIC ACID]             U-251               17

====

- System: U-251
- experiment-description: Inhibition of 26S proteasome activity in human U251 cells at 100 uM after 48 hrs relative to control
- Assay type: cell-based
- test-conditions: values are per cent of control
value-type: residual activity (%)

In [3]: df
Out[3]:
                                   compound  output_unit  observed_result
0         CC(C)(C)C(=O)OCOC(=O)CCC(=O)CN.Cl            %               54
1  CCCC(=O)OC(C)OC(=O)CCC(=O)CN.Cl (stereo not given)            %              117
2              CCCC(=O)OCOC(=O)CCC(=O)CN.Cl            %               56
3                                 CCCC(=O)O            %               74
4                           NCC(=O)CCC(=O)O            %              100

====

- Tested on: U-251
- experiment-description: Increase in heme level in human U251 cells assessed as porphobilinogen deaminase level at 100 uM after 2 hrs by Western blot relative to control
- Format: functional
As shown below, each of these molecules has a reported fold change (FC) value.
value-type: fold change (FC)

>>> print(df.to_string())
                                   molecule  observed_result
0              CCCC(=O)OCOC(=O)CCC(=O)CN.Cl                8
1  CCCC(=O)OC(C)OC(=O)CCC(=O)CN.Cl (centres undefined)                2
2                           NCC(=O)CCC(=O)O                2
3         CC(C)(C)C(=O)OCOC(=O)CCC(=O)CN.Cl                2
